# assayed-system: human GCGR (Homo sapiens (Human))
# Sequence (P47871 26-477): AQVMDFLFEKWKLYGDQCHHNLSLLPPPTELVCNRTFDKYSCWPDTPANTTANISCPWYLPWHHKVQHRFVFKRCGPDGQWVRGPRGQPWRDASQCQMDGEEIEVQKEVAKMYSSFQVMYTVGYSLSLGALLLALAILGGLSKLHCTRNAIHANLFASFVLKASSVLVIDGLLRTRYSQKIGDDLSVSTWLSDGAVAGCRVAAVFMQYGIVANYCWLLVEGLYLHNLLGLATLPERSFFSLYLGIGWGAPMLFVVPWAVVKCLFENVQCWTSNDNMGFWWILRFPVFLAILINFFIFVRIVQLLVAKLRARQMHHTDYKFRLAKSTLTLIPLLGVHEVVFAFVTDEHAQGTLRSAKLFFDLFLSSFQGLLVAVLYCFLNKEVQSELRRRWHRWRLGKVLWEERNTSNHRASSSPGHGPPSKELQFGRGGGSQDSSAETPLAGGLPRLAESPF
# method-description: Cellular functional assay, cAMP readout (glucagon-stimulated cAMP in HEK293 cells expressing human GCGR)
# Type: cell-based
# test-context: hGluc-1 HEK cells, LANCE TR-FRET, IC50 converted to Ki, average if tested more than once
measured-parameter: pKi
Please express pKi as -log10 of the molar concentration.

Report pKi for Cc1cc(Cl)ccc1-c1ccc(NCc2ccc(Cl)cc2-c2ccc(C(=O)NCCC(=O)O)nc2)cc1 7.47

Report pKi for COc1ccc(-c2ccc(C(=O)NCCC(=O)O)nc2)c(CNc2ccc(-c3ccc(Cl)cc3Cl)cc2)c1 5.86

Report pKi for O=C(O)CCNC(=O)c1ccc(-c2cc(Cl)ccc2CNc2ccc(-c3ccc(Cl)c(Cl)c3)c(C(F)(F)F)c2)cn1 6.19

---
Report pKi for Cc1ccc(-c2ccc(NCc3cc(F)c(F)cc3-c3ccc(C(=O)NCCC(=O)O)nc3)cc2C#N)c(F)c1 6.55

Report pKi for O=C(O)CCNC(=O)c1ccc(-c2cc(F)ccc2CNc2ccc(-c3ccc(Cl)cc3Cl)c(F)c2)cn1 6.69

Report pKi for O=C(O)CCNC(=O)c1ccc(-c2cc(Cl)ccc2CNc2ccc(-c3cccc(OC(F)(F)F)c3)cc2)cn1 6.15

Report pKi for O=C(O)CCNC(=O)c1ccc(-c2cc(Cl)ccc2CNc2ccc(-c3ccc(Cl)c(C(F)(F)F)c3)c(Cl)c2)cn1 6.85

Report pKi for O=C(O)CCNC(=O)c1ccc(-c2cc(Cl)ccc2CNc2ccc(-c3ccc(Cl)cc3Cl)c(F)c2)cn1 6.94

Report pKi for O=C(O)CCNC(=O)c1ccc(-c2cc(Cl)ccc2CNc2ccc(-c3ccccc3C(F)(F)F)cc2)cn1 5.76

Report pKi for O=C(O)CCNC(=O)c1ccc(-c2cc(Cl)ccc2CNc2ccc(-c3cc(F)cc(F)c3)cc2)cn1 6.37

Report pKi for Cc1cccc(CNc2ccc(-c3ccc(Cl)cc3)cc2)c1-c1ccc(C(=O)NCCC(=O)O)nc1 6.30

Report pKi for COc1ccc(-c2ccc(C(=O)NCCC(=O)O)nc2)c(CNc2ccc(-c3ccc(Cl)c(Cl)c3)cc2)c1 6.32
